# Tested on: MDA-MB-436
# ASSAY_NOTES: Antiproliferative activity against human MDA-MB-436 cells assessed as decrease in cell viability after 24 hrs by MTT assay
# Assay type: functional, cell-based
# EXPERIMENTAL_PARAMETERS: MDA-MB-436, 24 h
Assign IC50 to each entry below.
Give bare numbers, in µM.

# map each compound to its IC50
1. O=C(O)CC(NC(=O)c1ccc(C(F)(F)F)cc1)c1ccccc1F (configuration not stated)
2. O=C(O)CC(NS(=O)(=O)c1ccc(C(F)(F)F)cc1)c1ccc(Cl)cc1Cl (configuration not stated)
3. O=C(O)CC(NS(=O)(=O)c1ccc(C(F)(F)F)cc1)c1ccccc1F (configuration not stated)
4. O=C(O)CC(NC(=O)c1ccc(Cl)cc1Cl)c1ccc(Cl)cc1Cl (configuration not stated)

1. 66.8
2. 37.6
3. 55.6
4. 57.3

# map each compound to its IC50
1. CC(C)(C)c1ccc(C(CC(=O)O)NS(=O)(=O)c2ccc(F)cc2)cc1 (configuration not stated)
2. O=C(O)CC(NS(=O)(=O)c1cc(F)cc(F)c1)c1ccccc1F (configuration not stated)
3. N#Cc1ccc(S(=O)(=O)NC(CC(=O)O)c2ccccc2)cc1 (configuration not stated)
4. CC(C)(C)c1ccc(C(CC(=O)O)NS(=O)(=O)c2ccc(C(F)(F)F)cc2)cc1 (configuration not stated)
5. O=C(O)CC(NS(=O)(=O)c1cc(F)cc(F)c1)c1ccc(Cl)cc1Cl (configuration not stated)
6. N#Cc1ccc(S(=O)(=O)NC(CC(=O)O)c2ccccc2F)cc1 (configuration not stated)

68.9
89.3
59.3
60.1
49.6
77.7
